system: CD2F1 mice, L1210 leukemia ip, survival T/C; assay: NCI In Vivo Anticancer Drug Screen. Data for tumor model L1210 Leukemia (intraperitoneal) in CD2F1 (CDF1) mice; settings: endpoint: mean survival time; dose: 100.0 mg/kg/injection; schedule: Q01DX001 (ip); vehicle: Klucel (hydroxypropylcellulose) (HPC); higher = longer survival
Inconclusive results and toxic doses are left out.
For each of the molecules below, state its T/C.

Task: Write down T/C measured for item O=C(O)C1C2CCC(C2)C1C(=O)O (centres undefined)
Result: 108 % of control

Task: Give the reported value of T/C for this record: CC1(C)OC2C(CN=[N+]=[N-])OC(n3cnc4c(=O)[nH]c(N)nc43)C2O1 (centres undefined)
Result: 109 % of control

Task: Input CCCCn1c(C)nc2c(N)cc(C(F)(F)F)cc21 , output reported T/C.
Result: 97 % of control

Task: Please give measured T/C of the following entry: CCOC(=O)C1(C(=O)OCC)C(C)CC(OCC)N1C(=O)c1cc2c(cc1[N+](=O)[O-])OCO2 (centres undefined)
Result: 100 % of control

----------
system: CD2F1 mice, L1210 leukemia ip, survival T/C; assay: NCI In Vivo Anticancer Drug Screen. Data for tumor model L1210 Leukemia (intraperitoneal) in CD2F1 (CDF1) mice; settings: endpoint: mean survival time; dose: 100.0 mg/kg/injection; schedule: Q01DX001 (ip); vehicle: saline with Tween-80; higher = longer survival
Toxic doses and inconclusive results are not listed. Non-standard residues stand in square brackets, D forms with d. Residues, ends and D or L forms follow the SMILES beside them. ξ: configuration not given here. *: point of attachment. Bz = O=C(c1ccccc1)*; Bn = c1ccc(C*)cc1; ξC = NC(CS)C(=O)O
endpointName: T/C

Task: Annotate the compound COc1cc(N(C)C)ccc1/C=C\c1ccnc2ccccc12 with its measured T/C.
Result: 95 % of control

Task: Provide one value: measured T/C of CC(C)c1ccc(-n2cnc3c(=O)[nH]c(N)nc32)cc1
Result: 94 % of control

Task: Please give the documented T/C of O=C1c2ccccc2C(=O)N1CCBr
Result: 102 % of control

Task: Look up and report measured T/C for this entry: CC(=O)COc1cc(C)cc(C)c1
Result: 104 % of control

Task: In one line, give reported T/C of the entry O=C[c-]1[c-][c-][c-][c-]1.[Fe+2].[c-]1[c-][c-][cH-][c-]1 .
Result: 117 % of control

Task: Return the recorded T/C value; entry: O=C(COC(=O)C1CCCCCCC1)c1ccc(Br)cc1
Result: 100 % of control

Task: Report T/C, nothing else, for this compound: O=C(O)CCn1cccc1
Result: 91 % of control

Task: Query T/C for O=Cc1ccc(O)c(Cl)c1
Result: 96 % of control

Task: Assign T/C to the following record: CSC(=O)C(=O)SC
Result: 108 % of control

Task: Quick one: give measured T/C for CCOc1ccc(/C=N/NC(=O)c2ccccc2NC(=O)C2CC2)cc1OC
Result: 98 % of control

Task: Let me know recorded T/C for O=C(O)c1cc(Cl)nc(Cl)c1 , thanks.
Result: 94 % of control

Task: Provide measured T/C value, entry: CCOC(=O)c1c2cccccc-2c(C#N)c1O
Result: 93 % of control

Task: Kindly indicate its recorded T/C. Item: COc1ccc(N=Nc2sc(N)nc2-c2cccc([N+](=O)[O-])c2)cc1
Result: 93 % of control

Task: For the compound C/C(=N/O)[c-]1[c-][c-][c-][c-]1.[Fe].[c-]1[c-][c-][cH-][c-]1 , give its reported T/C.
Result: 95 % of control

Task: Using known records, supply T/C for C1CCC(CCCC(CCCC2CCCCC2)CCCC2CCCCC2)CC1
Result: 94 % of control

Task: Consider the compound COc1ccc(CC2(C#N)c3ccccc3C=CN2C(=O)c2ccccc2)c([N+](=O)[O-])c1OC (stereo not drawn) and give its recorded T/C.
Result: 95 % of control

Task: Quick one: give measured T/C for O=[N+]([O-])c1ccc(S(=O)(=O)C/C=C/CCl)c([N+](=O)[O-])c1
Result: 94 % of control

Task: Tell me measured T/C for Cc1ccc(S/C=C/C(=O)Nc2ccccc2)cc1 please.
Result: 97 % of control

Task: Fill in T/C for record CC(=O)OC1CC2(O)C3CCC4CC(O)CCC4(C)C3CCC2(C)C1C1=CC(=O)OC1 (stereo not drawn)
Result: 98 % of control

Task: State, in one line, measured T/C of CN(N=O)C(=O)NC1C(CO)OC(n2ccc(N)nc2=O)C1O (stereo not drawn)
Result: 98 % of control

Task: State its T/C for this compound: C/C=C/C(=O)Nc1ccc(Cl)c(Cl)c1
Result: 95 % of control

Task: Give the reported value of T/C for this record: O=[N+]([O-])c1ccc(C(O)C(O)c2ccccc2)cc1 (stereo not drawn)
Result: 96 % of control

Task: Please report T/C for the following compound: O=C1C(c2ccccc2)=C(c2ccccc2)C(c2ccccc2)=C1c1ccccc1
Result: 97 % of control

Task: Let me know recorded T/C for CC(C)CCn1cnc2c(=S)nc(N)[nH]c21 , thanks.
Result: 95 % of control

Task: Respond only with T/C recorded for CCC1CC(=O)C2Nc3ccccc3C2C1 (stereo not drawn)
Result: 88 % of control

Task: Output measured T/C for this item: CC(=O)Nc1cc([N+](=O)[O-])cc([N+](=O)[O-])c1O
Result: 101 % of control

Task: Recall and state the measured T/C for [N-]=[N+]=c1c(=O)c2ccccc2c1=O .
Result: 96 % of control

Task: Using the record for O=C(/C=C(/Nc1ccccc1)c1ccccc1)c1ccccc1 , state its measured T/C.
Result: 90 % of control

Task: Specify T/C for CC1=C(C)CS(=O)(=O)N(c2ccccc2)C1 and stop.
Result: 101 % of control

Task: Supply reported T/C belonging to this compound: CCOC(=O)C/C(C)=C/c1ccccc1 (tested in a mixture with another compound)
Result: 95 % of control

Task: Hello, please tell me recorded T/C for this one: CCC(=O)O[C@H]1CC[C@H]2[C@@H]3[C@@H](C)CC4=CC(=O)CC[C@]4(C)[C@H]3CC[C@]12C
Result: 91 % of control

Task: Check the records and state T/C for Nc1nc(N)c(-c2ccc(Cl)cc2)c(COc2ccc(CCC3(CCl)OCCO3)cc2)n1
Result: 108 % of control

Task: Look up and state reported T/C for CCOC12c3c4cccc3Oc3cccc(c31)S(=O)(=O)c1cccc(c12)O4
Result: 89 % of control

Task: Consider the compound Cc1cccc(CCF)c1 and give its recorded T/C.
Result: 110 % of control

Task: Retrieve T/C measured for Nc1nc(N)c(-c2ccc(Cl)cc2)c(/C=C/C=C/c2ccc([N+](=O)[O-])cc2)n1 and print it.
Result: 92 % of control

Task: Look up and state reported T/C for C=C1N(c2cc3ccccc3o2)C(=O)OC12CCCCC2
Result: 101 % of control

Task: Check the records and state T/C for CC(=O)Nc1ccccc1[N+](=O)[O-]
Result: 103 % of control

Task: Dear colleague, please send me the reported T/C for O/N=C(/Cc1ccccc1)c1ccccc1 when you can.
Result: 100 % of control

Task: Provide T/C value for the following compound: O=NN(CCCl)C(=O)NC1CCN(Cc2ccccc2)CC1
Result: 379 % of control

Task: Name the recorded T/C of the compound listed here: O=S(=O)(c1ccc(Br)cc1)c1ccc(Br)cc1
Result: 112 % of control

Task: Please indicate T/C recorded for COC(=O)C(CSCc1ccccc1)NC(=O)CNC(=O)c1ccccc1 (stereo not drawn) (Bz-Gly-[ξC](Bn)-OMe)
Result: 98 % of control

Task: Read off the recorded T/C for N#C/C(=C/c1ccc(Cl)cc1)C(N)=O
Result: 121 % of control

Task: Give the reported T/C for this compound. COC(=O)C(N)CCCCNc1ccc2c(cc1=O)C(NC(C)=O)CCc1cc(OC)c(OC)c(OC)c1-2 (stereo not drawn)
Result: 106 % of control

----------
Test system: CD2F1 mice, L1210 leukemia ip, survival T/C
Assay: NCI In Vivo Anticancer Drug Screen. Data for tumor model L1210 Leukemia (intraperitoneal) in CD2F1 (CDF1) mice
Details: endpoint: mean survival time; dose: 12.5 mg/kg/injection; schedule: Q01DX009 (ip); vehicle: Klucel (hydroxypropylcellulose) (HPC); higher = longer survival
Description: The antitumor activity of compounds was measured in mice bearing transplantable tumors. Survival or tumor size were measured and the results are expressed as the measurement made in the treated group (T) divided by the measurement made in the vehicle treated control group (C). The tumor model used in this assay is L1210 Leukemia (intraperitoneal) in CD2F1 (CDF1) mice
Toxic doses and inconclusive results are not listed.
Task for the reader: assign each of the following compounds its reported T/C.

Task: Report measured T/C; entry is COC12C(COC(=O)NCCO)C3=C(C(=O)C(C)=C(N)C3=O)N1CC1NC12 (stereo not drawn)
Result: 115 % of control

Task: Please look at this compound and report its T/C: Oc1c(Cl)cc(C(c2cc(Cl)c(O)c(Cl)c2)C(c2cc(Cl)c(O)c(Cl)c2)c2cc(Cl)c(O)c(Cl)c2)cc1Cl
Result: 95 % of control

Task: Provide measured T/C value, entry: CCOC(=O)Nc1cc2c(c(N)n1)N=C(c1ccc(-c3ccccc3)cc1)CN2
Result: 89 % of control

Task: Using known records, supply T/C for Cc1ccc(S(=O)(=O)N/N=C(\C(=O)O)c2ccccc2)cc1
Result: 95 % of control

Task: Check the records and state T/C for C[Si](C)(C)OSc1ccccc1[N+](=O)[O-]
Result: 95 % of control

Task: Supply measured T/C of O/N=C/c1cccc[n+]1Cc1ccccc1 in your reply.
Result: 106 % of control

Task: Please look at this compound and report its T/C: CC1(C)CC2(OC2c2ccccc2)C(=O)c2ccccc21 (stereo not drawn)
Result: 96 % of control

Task: Determine its reported T/C: O=c1oc2c(O)c(O)cc3c(=O)oc4c(O)c(O)cc1c4c23
Result: 100 % of control

From: PubChem BioAssay AID256
